Listing of pKd toward Galectin-1 (Homo sapiens, UniProt P09382), each taken from a published source.
pKd: −log10 of the molar value.
Response key: yes means pKd >= 5; no means pKd < 5.

Does pKd meet or surpass 5 for OCC1O[C@@H](SC2O[C@H](CO)C(O)C(n3cc(C4CCNCC4)nn3)[C@H]2O)C(O)[C@@H](n2cc(-c3cc(F)c(F)c(F)c3)nn2)[C@H]1O (stereo partly drawn) ?
yes

Does pKd meet or surpass 5 for O=C(NC1CCC[C@@H](S[C@@H]2OC(CO)[C@H](O)[C@H](NC(=O)c3ccc(Cl)cc3)C2O)C1O)c1ccc(Cl)cc1 (stereo partly drawn) ?
yes

Does pKd meet or surpass 5 for CC(C)(C)c1ccc2oc(=O)c(COC3C(O)[C@H](S[C@@H]4OC(CO)[C@H](O)C(OCc5cc6cc(C(C)(C)C)ccc6oc5=O)C4O)OC(CO)[C@@H]3O)cc2c1 (stereo partly drawn) ?
no

Does pKd meet or surpass 5 for O=c1oc2ccccc2cc1CO[C@H]1[C@@H](O)[C@@H](CO)O[C@@H](S[C@@H]2O[C@H](CO)[C@H](O)[C@H](OCc3cc4ccccc4oc3=O)[C@H]2O)[C@@H]1O ?
no

Does pKd meet or surpass 5 for O=c1oc2cc(O)ccc2cc1COC1C(O)[C@H](S[C@@H]2OC(CO)[C@H](O)C(OCc3cc4ccc(O)cc4oc3=O)C2O)OC(CO)[C@@H]1O (stereo partly drawn) ?
yes

Does pKd meet or surpass 5 for CC(C)c1cn(C2C(O)[C@@H](CO)OC(S[C@@H]3OC(CO)[C@H](O)C(n4cc(-c5cc(F)c(F)c(F)c5)nn4)C3O)[C@@H]2O)nn1 (stereo partly drawn) ?
yes

Does pKd meet or surpass 5 for O=c1oc2cccc(Cl)c2cc1CO[C@H]1[C@@H](O)[C@@H](CO)O[C@@H](S[C@@H]2O[C@H](CO)[C@H](O)[C@H](OCc3cc4c(Cl)cccc4oc3=O)[C@H]2O)[C@@H]1O ?
no
